Item-by-item account of chemical recovery
- ASSAY EXPLANATION: chemical recovery from spiked human plasma; higher = better extraction;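 further: plasma spiked with over 400 chemicals, quantified by LC-HRMS and GC-HRMS via internal standard calibration against matrix-matched unspiked plasma extracts plus spike mix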
- ASSAY SETUP: pooled human plasma; extraction method: SPE only (HLB 96-well)
Just the number in %, nothing appended.

In the examples that follow, each entry is paired with its recorded chemical recovery.
COMPOUND | REPORTED RESULT
CN(C1CCCCC1)C1CCCCC1 | 30.9
CCCNC(=O)NS(=O)(=O)c1ccc(Cl)cc1 [Chlorpropamide] | 47.5
COc1ccc2c(c1)[C@]13CCCC[C@@H]1[C@H](C2)N(C)CC3 | 39.3
COP(=S)(OC)Oc1c(Cl)cc(C)cc1Cl | 33.8
ClC1=C(Cl)C2(Cl)C3C4C=CC(C4)C3C1(Cl)C2(Cl)Cl (centres undefined) | 1.53
C[N+](C)(C)Cc1ccccc1 | 3.88

IN: Fill in: chemical recovery of O=P1(N(CCCl)CCCl)NCCCO1 (centres undefined) [Cyclophosphamide] is ___
OUT: 41

IN: Fill in: chemical recovery of CCOc1ccc(C(C)(C)COCc2cccc(Oc3ccccc3)c2)cc1 is ___
OUT: 4.05

IN: Fill in: chemical recovery of OC(c1ccc(Cl)cc1)(c1ccc(Cl)cc1)C(Cl)(Cl)Cl is ___
OUT: 0.108

IN: Fill in: chemical recovery of Nc1ccc(Cl)cc1 is ___
OUT: 16.4

IN: Fill in: chemical recovery of c1ccc2cc3c(cc2c1)sc1ccccc13 [Benzo[b]naphtho(2,3-d)thiophene] is ___
OUT: 0.871

IN: Fill in: chemical recovery of CCCOC(=O)c1ccc(O)cc1 is ___
OUT: 43.1

---

- ASSAY EXPLANATION: chemical recovery from spiked human plasma; higher = better extraction
- ASSAY SETUP: pooled human plasma; extraction method: PES+SPE (3 d PDMS equilibration then HLB SPE)
PARAMETER MEASURED: chemical recovery (%)
Just the number in %, nothing appended.

COMPOUND | chemical recovery / %
O=C(CC(C(=O)OC1CCCCC1)S(=O)(=O)O)OC1CCCCC1 (stereo unspecified) [Dicyclohexyl-sulfosuccinate] | 57.7
NC(=O)c1c(Cl)c(Cl)cc(C(=O)O)c1Cl | 25.4
COP(=O)(OC)C(O)C(Cl)(Cl)Cl (stereo unspecified) | 13.2
OC(Cn1cncn1)(c1ccc(F)cc1)c1ccccc1F (stereo unspecified) | 43.2
Cc1cccc(C)c1N(Cn1cccn1)C(=O)CO [Metazachlor-2-hydroxy] | 49
CN(C)CCC(c1ccc(Cl)cc1)c1ccccn1 (stereo unspecified) | 0.333
COc1ccccc1OCC(O)COC(N)=O (stereo unspecified) | 40.6
COc1ccc2[nH]cc(CCNC(C)=O)c2c1 | 37.8

IN: Fill in: chemical recovery of CNC(=O)/C(=N/OC)c1ccccc1COc1cc(C)ccc1C is ___
OUT: 60.1

IN: Fill in: chemical recovery of c1ccc2cc3c(cc2c1)sc1ccccc13 [Benzo[b]naphtho(2,3-d)thiophene] is ___
OUT: 61.7

IN: Fill in: chemical recovery of CN1C(=O)CN=C(c2ccccc2)c2cc(Cl)ccc21 is ___
OUT: 66.5

IN: Fill in: chemical recovery of Nc1ccc(Oc2ccc(N)cc2)cc1 is ___
OUT: 0.849

IN: Fill in: chemical recovery of NC(=O)C(F)(F)C(F)(F)F [Pentafluoropropionamide] is ___
OUT: 9.12

IN: Fill in: chemical recovery of Oc1cc(Cl)ccc1Oc1ccc(Cl)cc1Cl is ___
OUT: 49.8

IN: Fill in: chemical recovery of O=C(O)C(F)(F)C(F)(F)C(F)(F)OC(F)(F)F is ___
OUT: 43.5

IN: Fill in: chemical recovery of CC(=O)CCc1ccc(O)cc1 [4-(4-Hydroxyphenyl)butan-2-one] is ___
OUT: 64.8

IN: Fill in: chemical recovery of COc1ccc2c(c1)[nH]c1c(C)nccc12 is ___
OUT: 37.8

IN: Fill in: chemical recovery of c1ccc2nc3ccccc3cc2c1 is ___
OUT: 39.7

IN: Fill in: chemical recovery of [O-][n+]1cccc2ccccc21 [Quinoline N-oxide] is ___
OUT: 42.6

IN: Fill in: chemical recovery of CN(C)S(=O)(=O)c1ccc(N)cc1 [4-Amino-NN-dimethylbenzenesulfonamide] is ___
OUT: 51.6

IN: Fill in: chemical recovery of c1ccc2[nH]nnc2c1 is ___
OUT: 51.7

IN: Fill in: chemical recovery of CNC(=O)c1cc(Cl)cc(C)c1NC(=O)c1cc(Br)nn1-c1ncccc1Cl is ___
OUT: 66.7

IN: Fill in: chemical recovery of CCCN(CC)CC1COC2(CCC(C(C)(C)C)CC2)O1 (stereo unspecified) is ___
OUT: 0.223

IN: Fill in: chemical recovery of CCN(CC)CC(=O)Nc1c(C)cccc1C is ___
OUT: 1.08

IN: Fill in: chemical recovery of C=CCc1ccc(O)c(OC)c1 is ___
OUT: 42.8

IN: Fill in: chemical recovery of NC(=O)N1c2ccccc2C(O)C(O)c2ccccc21 (stereo unspecified) [10,11-Dihydro-10,11-dihydroxycarbamazepine] is ___
OUT: 45.5

IN: Fill in: chemical recovery of COc1ccc2[nH]c(SCc3ncc(C)c(OC)c3C)nc2c1 [Omeprazole-sulfide] is ___
OUT: 19.8

IN: Fill in: chemical recovery of CCCCCCCCCC(=O)N(C)C [N,N-Dimethyldecan-1-amide] is ___
OUT: 27.7

IN: Fill in: chemical recovery of CCNc1nc(NCC)[nH]c(=O)n1 [Simazine-2-Hydroxy] is ___
OUT: 20.1

IN: Fill in: chemical recovery of Cc1nccn1CC1CCc2c(c3ccccc3n2C)C1=O (stereo unspecified) is ___
OUT: 15.3

IN: Fill in: chemical recovery of CC(=O)N1CCN(c2ccc(OC[C@H]3CO[C@](Cn4ccnc4)(c4ccc(Cl)cc4Cl)O3)cc2)CC1 (racemic) is ___
OUT: 7.76
